Source listed as ChEMBL document CHEMBL6134844.

# Tested on: Hepatocyte
# Test Protocol: Cytotoxicity against Macaca mulatta hepatocytes assessed as cell viability measured after 48 hrs by MTT assay
# Type: toxicity, cell-based
# Conditions: rhesus monkey, 48 h
Value Kind: CC50

// returns CC50 for "O=c1c2c([nH]c3cc(Oc4ccc(OC(F)(F)F)cc4)c(F)cc13)CCCC2" with Hepatocyte; value = 3.11 µM

// returns CC50 for "O=c1c2ccc(OCc3cccc(OC(F)(F)F)c3)cc2[nH]c2ccc(Cl)c(F)c12" with Hepatocyte; value = > 20 µM

====

# Test Protocol: Tmax in male ICR-CD1 mouse plasma at 80 mg/kg, po
# Type: ADME, organism-based
Value Kind: Tmax (h)
Your answer is read as h, so omit the unit and give the number.

For this compound ( "O=c1c2cc(F)c(Oc3ccc(OC(F)(F)F)cc3)cc2[nH]c2cc(Cl)cc(F)c12" ), measured Tmax is 4
